- assaySummary: Mitochondrial toxicity (Glu/Gal) assay
- Format: cell-based
- experimentalParameters: mitotoxicity score, Glu/Gal assay
endpointName: Score

O=C(NCc1ccc(-c2nc3n(n2)CCN(S(=O)(=O)C(F)(F)F)C3)c(F)c1)c1c(C(F)F)nc2ccc(Cl)cn12 | [x]1
CCc1nc2cc(C)c(Cl)cn2c1C(=O)NCc1cnc(-c2nc3n(n2)CCN(S(=O)(=O)C(F)(F)F)C3)c(F)c1 | [x]1
Cc1cnc2nc(C3CC3)c(C(=O)NCc3ccc(-c4nn5c(c4C)CN(S(=O)(=O)C(F)(F)F)CC5)cc3)n2c1 | [x]3
O=C(NCc1ccc(-c2cn3c(n2)CN(S(=O)(=O)C(F)(F)F)CC3)cc1)c1c(C(F)F)nc2ccccn12 | [x]3

Please state, for each entry, its recorded Score.
1. CCc1nc2c(F)cc(Cl)cn2c1C(=O)NCc1ccc(-c2nc3n(n2)CCN(S(=O)(=O)C(F)(F)F)C3)cc1
2. O=C(NCc1ccc(-c2nc3n(n2)CCN(S(=O)(=O)C(F)(F)F)C3)c(F)c1)c1c(C(F)(F)F)nc2ccccn12
3. CCc1nc2ccc(C)cn2c1C(=O)NCc1ccc(-c2nc3n(n2)CCN(CCOC)C3)cc1
4. CCc1nc2ccc(F)cn2c1C(=O)NCc1ccc(-c2nc3n(n2)CCN(S(=O)(=O)C(F)(F)F)C3)cc1
5. CCc1nc2nc(C)c(Cl)cn2c1C(=O)NCc1ccc(-c2nc3n(n2)CCN(S(=O)(=O)C(F)(F)F)C3)cc1
6. CCc1nc2ccc(Cl)cn2c1C(=O)NCc1ccc(-c2cc3n(n2)CCN(S(=O)(=O)C(F)(F)F)C3)cc1

1. [x]1
2. [x]1
3. [x]1
4. [x]1
5. [x]1
6. [x]1

* * *

Could you please report measured microsomal CLint at 1 µM for the items listed next?
- assaySummary: LM CLint (microsomal stability), mouse
- Format: in vitro ADME
- experimentalParameters: microsomes, 1 μm, read-out: CLint Microsomes, Mouse (m)
One number for each entry, in µL/min/mg.

Some entries whose results are on file:
CCc1nc2ccc(C)cn2c1C(=O)NCc1ccc(-c2nc3n(n2)CCN(S(=O)(=O)C(F)(F)F)C3)cc1 | 76.3
CCc1nc2ccc(Cl)cn2c1C(=O)NCc1ccc(-c2nc3n(n2)CCN(S(=O)(=O)C(F)(F)F)C3)cc1 | 49.2
CCc1nc2ncc(C)cn2c1C(=O)NCc1cnc(-c2cc3n(n2)CCN(S(=O)(=O)C(F)(F)F)C3)c(C)c1 | 29.4

# context switch: different molecule, same microsomal CLint at 1 µM
Which value of microsomal CLint at 1 µM has been reported for CCc1nc2ncc(C)cn2c1C(=O)NCc1ccc(-c2cc3n(n2)CCN(S(=O)(=O)C(F)(F)F)C3)cc1 in the records? 20

* * *

- assaySummary: Chemical stability testing (LCMS)
- Assay type: physicochemical
- experimentalParameters: 48 h, 30 µM
endpointName: chemical stability, % by LCMS (%)
Answers are plain numbers, in %.

Take each entry in turn and give its chemical stability, % by LCMS.
1. CCc1nc2ccc(C)cn2c1C(=O)NCc1ccc(-c2cc3n(n2)CCN(S(=O)(=O)C(F)(F)F)C3)cc1
2. CCc1nc2ncc(C)cn2c1C(=O)NCc1ccc(-c2nc3n(n2)CCN(S(=O)(=O)N2CCCC2)C3)cc1
3. O=C(NCc1ccc(-c2nc3n(n2)CCN(S(=O)(=O)C(F)(F)F)C3)c(F)c1)c1c(C(F)(F)F)nc2ccccn12
4. Cc1cnc2nc(C3CC3)c(C(=O)NCc3ccc(-c4nc5n(n4)CCN(S(=O)(=O)C(F)(F)F)C5)cc3)n2c1

[100, 99, 100, 100]
